Assay: Drug metabolism in cynomolgus monkey liver microsomes assessed as DPH-124921 metabolite level at 100 uM after 1 hr in presence of NADPH
Type: ADME, Macaca fascicularis
readout-name: Drug metabolism

* COc1ccc(-c2c(C)nn3c(N)nc(C)nc23)c(C)n1 | metabolite_detected
* COc1ccc(-c2c(C)nn3c(O)nc(C)nc23)c(C)n1 | metabolite_detected
* CC[C@@H](C)Nc1nc(C)nc2c(-c3ccc(O)nc3C)c(C)nn12 | metabolite_detected
* CC[C@@H](C)Nc1nc(C)nc2c(-c3ccc(OC)nc3C)c(C)nn12 [PEXACERFONT] | metabolite_detected

====

Assay: Terminal half life in Sprague-Dawley rat at 1 mg/kg, iv
Format: ADME, organism-based
Design: dose 1 mg/kg, route intravenous
Details: in vivo, read-out: beta t1/2 (converted)
readout-name: half-life
Answer with the number, then the unit.

Suppose we examine the molecule CC[C@@H](C)Nc1nc(C)nc2c(-c3ccc(OC)nc3C)c(C)nn12 [PEXACERFONT] ; what half-life value has been reported?
13.5 h

====

Experiment: AUC (infinity) in Sprague-Dawley rat at 1 mg/kg, iv
Assay type: ADME, organism-based
Design: time infinity, dose 1 mg/kg, route intravenous
Details: plasma
readout-name: AUC(0-inf) (µM·h)
# value in µM·h; strip the unit string

Suppose we examine the molecule "CC[C@@H](C)Nc1nc(C)nc2c(-c3ccc(OC)nc3C)c(C)nn12" ; what AUC(0-inf) value has been reported?
2.9

====

Tested on: Liver microsome
Assay: Drug metabolism in rat liver microsomes at 100 uM after 1 hr in presence of NADPH
Format: ADME
readout-name: Drug metabolism

* COc1ccc(-c2c(C)nn3c(O)nc(C)nc23)c(C)n1 | metabolite_detected
* CC[C@@H](C)Nc1nc(C)nc2c(-c3ccc(O)nc3C)c(C)nn12 | metabolite_detected
* COc1ccc(-c2c(C)nn3c(N)nc(C)nc23)c(C)n1 | metabolite_detected
* CC[C@@H](C)Nc1nc(C)nc2c(-c3ccc(OC)nc3C)c(C)nn12 | metabolite_detected

====

Experiment: Drug metabolism in mouse hepatocytes assessed as decrease of compound level at 25 uM after 3 hrs by HPLC analysis
Assay type: ADME, cell-based, Hepatocyte
Conditions: read-out: Drug metabolism
readout-name: metabolised at 3 h, 25 µM (%)
# value in %; strip the unit string

Suppose we examine the compound "CC[C@@H](C)Nc1nc(C)nc2c(-c3ccc(OC)nc3C)c(C)nn12" ; what metabolised at 3 h, 25 µM value has been reported?
75

====

Assay: Drug metabolism in human cryopreserved hepatocytes assessed as decrease of compound level at 25 uM after 3 hrs by HPLC analysis
Format: ADME, cell-based, Hepatocyte
Settings: read-out: Drug metabolism
readout-name: metabolised at 3 h, 25 µM (%)
# value in %; strip the unit string

Suppose we examine the compound "CC[C@@H](C)Nc1nc(C)nc2c(-c3ccc(OC)nc3C)c(C)nn12" ; what metabolised at 3 h, 25 µM value has been reported?
40

====

Assay: Drug metabolism in mouse liver microsomes assessed as DPH-124921 metabolite level at 100 uM after 1 hr in presence of NADPH
Type: ADME
readout-name: Drug metabolism

- CC[C@@H](C)Nc1nc(C)nc2c(-c3ccc(OC)nc3C)c(C)nn12: metabolite_detected
- COc1ccc(-c2c(C)nn3c(N)nc(C)nc23)c(C)n1: metabolite_detected
- CC[C@@H](C)Nc1nc(C)nc2c(-c3ccc(O)nc3C)c(C)nn12: metabolite_detected
- COc1ccc(-c2c(C)nn3c(O)nc(C)nc23)c(C)n1: metabolite_detected

====

Assay: Detection of compound level in cynomolgus monkey cryopreserved hepatocytes treated with 25 uM of BMS-562086 after 3 hrs by LC-MS/MS analysis
Type: ADME, cell-based, Macaca fascicularis, Hepatocyte
readout-name: Drug metabolism

- COc1ccc(-c2c(C)nn3c(N)nc(C)nc23)c(C)n1: metabolite_detected
- CC[C@@H](C)Nc1nc(C)nc2c(-c3ccc(O)nc3C)c(C)nn12: metabolite_detected
- COc1ccc(-c2c(C)nn3c(O)nc(C)nc23)c(C)n1: metabolite_detected
- CC[C@@H](C)Nc1nc(C)nc2c(-c3ccc(OC)nc3C)c(C)nn12: metabolite_detected

====

Tested on: Liver microsome
Experiment: Drug metabolism in beagle dog liver microsomes assessed as DPH-123554 metabolite level at 100 uM after 1 hr in presence of NADPH
Assay type: ADME, Canis lupus familiaris
readout-name: Drug metabolism

• COc1ccc(-c2c(C)nn3c(O)nc(C)nc23)c(C)n1 = metabolite_detected
• CC[C@@H](C)Nc1nc(C)nc2c(-c3ccc(O)nc3C)c(C)nn12 = metabolite_detected
• CC[C@@H](C)Nc1nc(C)nc2c(-c3ccc(OC)nc3C)c(C)nn12 = metabolite_detected
• COc1ccc(-c2c(C)nn3c(N)nc(C)nc23)c(C)n1 = metabolite_detected
